Test system: SW-620 colon
Assay notes: NCI tumour cell line growth inhibition, 48 h
Field: TGI. Provide a value for each of the molecules that follow.

Solved cases below.
Molecule	TGI
CC#CCOC(=O)c1ccccc1OC(C)=O	> 100 µM
CN1C(=O)N(C)C2C1NN=c1s/c(=C\c3ccc(Cl)cc3Cl)c(=O)n12 (stereo unspecified)	> 100 µM
N#Cc1c2ccccc2cn1-c1ccc(F)cc1	> 100 µM
O=C1/C(=C/c2ccc3c(c2)OCO3)SC2C=Nc3ccccc3N12 (stereo unspecified)	> 100 µM
CCCCCCc1cc2cc(C(=O)Nc3ccccc3)c(=N)oc2cc1O	> 100 µM
COc1c(OC[C@H](O)CN2CCOCC2)ccc2c3n(c(=NC(=O)c4cccnc4C)nc12)CCN3	> 50 µM
Nc1c(C(=O)Nc2ccncc2)sc2nc3c(cc12)CCCCCCCC3	1.88 µM
CCCN1C(=O)N(CCC)C2C1NC(=S)N2/N=C/C=C/c1ccccc1OC (stereo unspecified)	> 100 µM

Hi, could you look up TGI for each item in my list?
1. NCc1ccccc1-c1c2nc(c(-c3ccccc3CN)c3ccc([nH]3)c(-c3ccccc3CN)c3nc(c(-c4ccccc4CN)c4ccc1[nH]4)C=C3)C=C2
2. CCSc1ncnc2c1ncn2C1OC(CO)C(O)C1O (stereo unspecified)
3. Cc1nn(-c2ccc(Cl)cc2)c2nc3c(nc12)C(=O)c1ccccc1-3

1. > 100 µM
2. > 100 µM
3. > 100 µM

###

System: A498 renal
Assay notes: NCI tumour cell line growth inhibition, 48 h; in the data active = GI50 below about 0.43 µM; inactive = the rest
Outcomes you can answer with include only these: active, inactive

These solved cases illustrate the format of a correct answer.
Smiles string	Measured on	Assigned label
Oc1cc2cccc[n+]2c2cc(Cl)ccc12	A498 renal	inactive
Cc1ccc(NC(=O)CC2CC2)cc1-c1ccc(C(=O)NCC2CC2)cc1	A498 renal	inactive

# evaluate next
Hello, I am checking results. What call was entered for NCCNc1c2c(c(NCCN)c3[nH]ccc13)C(=O)c1ccccc1C2=O ? active

###

Tested on: PC-3 prostate
Assay notes: NCI tumour cell line growth inhibition, 48 h
Where a SMILES comes first, the peptide text is derived from it. The star is where a group is joined. Cbz = O=C(OCc1ccccc1)*; CH2Cl = ClC*
Field: TGI. Provide a value for each of the compounds that follow.

Hi, could you look up TGI for each item in my list?
1. COC(=O)/C=C(\C)CC(O)/C=C(\C)CCC=C(C)C (configuration not stated)
2. Cc1ccc(NC(=O)CC2CC2)cc1-c1ccc(C(=O)NCC2CC2)cc1
3. CSc1ncnc2c1ncn2CCC(=O)OC(C)(C)C
4. CC(C)(C)OC(=O)[C@H]1CCC(=S)N1Cc1ccccc1
5. Cc1nc2c(nc1C)-c1[nH]c3c(c1C(=O)C2=O)CCCC3=O

["> 100 µM", "> 25 µM", "> 100 µM", "> 100 µM", "15.7 µM"]

Hi, could you look up TGI for each item in my list?
1. O=C1OCC2=C1C(c1cccc(Br)c1)c1cc3c(cc1N2CCO)CCC3 (configuration not stated)
2. NC(=O)C(C(N)=O)=C(O)C(=O)/C=C(\O)c1ccccc1
3. CC(C)CC(NC(=O)OCc1ccccc1)C(=O)NC(Cc1ccccc1)C(=O)CCl (stereo not drawn) (Cbz-Leu-Phe-CH2Cl; configuration not given here)

["7.1 µM", "> 100 µM", "9.41 µM"]
